experiment summary: Selectivity ratio of Ki for Sachcharomyces cerevisiae beta carbonic anhydrase to Ki for human carbonic anhydrase-2
value type: Ratio Ki
Number, no unit, nothing else.

Answered examples (3):
CN(C)c1ccc(/C=C(\C#N)C(=O)Nc2ccc(S(N)(=O)=O)cc2)cc1; 6.46
COc1cc(/C=C(\C#N)C(=O)Nc2ccc(S(N)(=O)=O)cc2)cc(OC)c1OC; 1.05
COc1ccc(/C=C(\C#N)C(=O)Nc2ccc(S(N)(=O)=O)cc2)cc1OC; 2.58

Query block: I am curious: what Ratio Ki value has been reported for `N#CCC(=O)Nc1ccc(S(N)(=O)=O)cc1` ?
Result block: 0.7

Query block: Also `N#C/C(=C\c1ccc(O)cc1)C(=O)Nc1ccc(S(N)(=O)=O)cc1` , if possible.
Result block: 13.5

Query block: Also `COc1cc(OC)c(OC)cc1/C=C(\C#N)C(=O)Nc1ccc(S(N)(=O)=O)cc1` , if possible.
Result block: 4.44

----------
Parameter Ratio Ki: see the listing below.
experiment summary: Selectivity ratio of Ki for Sachcharomyces cerevisiae beta carbonic anhydrase to Ki for human carbonic anhydrase-1

Answered examples (2):
COc1cc(OC)c(OC)cc1/C=C(\C#N)C(=O)Nc1ccc(S(N)(=O)=O)cc1; 4.93
COc1cc(/C=C(\C#N)C(=O)Nc2ccc(S(N)(=O)=O)cc2)ccc1O; 5.87

Continue with the compound presented below.
Query block: I am curious: what Ratio Ki value has been reported for `N#C/C(=C\c1ccccc1Cl)C(=O)Nc1ccc(S(N)(=O)=O)cc1` ?
Result block: 4.91

----------
experiment summary: Selectivity ratio of Ki for Sachcharomyces cerevisiae beta carbonic anhydrase to Ki for human carbonic anhydrase-1
value type: Ratio Ki
Number, no unit, nothing else.

Answered examples (3):
CC(=O)Nc1nnc(S(N)(=O)=O)s1 [ACETAZOLAMIDE]; 3.02
N#C/C(=C\c1ccc(O)c(O)c1)C(=O)Nc1ccc(S(N)(=O)=O)cc1; 69.9
COc1cc(/C=C(\C#N)C(=O)Nc2ccc(S(N)(=O)=O)cc2)cc(OC)c1OC; 5.17

Query block: I am curious: what Ratio Ki value has been reported for `CC(=O)C1=NN(c2ccccc2)/C(=C(\C#N)C(=O)Nc2ccc(S(N)(=O)=O)cc2)S1` ?
Result block: 2.02
